molecular target: human melanocortin 3 receptor (human) (UniProt P41968); test: radioligand competition, [I125]-NDP-α-MSH, hMC3-R membranes
Sequence (P41968 whole entry): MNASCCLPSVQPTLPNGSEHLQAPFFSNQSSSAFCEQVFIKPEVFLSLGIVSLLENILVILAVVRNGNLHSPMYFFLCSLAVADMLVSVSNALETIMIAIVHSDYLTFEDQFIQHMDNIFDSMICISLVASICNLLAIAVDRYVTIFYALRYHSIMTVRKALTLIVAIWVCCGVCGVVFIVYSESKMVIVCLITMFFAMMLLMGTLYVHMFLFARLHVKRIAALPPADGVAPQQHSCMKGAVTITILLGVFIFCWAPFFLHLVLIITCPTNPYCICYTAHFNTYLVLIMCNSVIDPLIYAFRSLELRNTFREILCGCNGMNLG
pKi: −log10 of the molar value.
measured_parameter: pKi

[[record]]
binder = "XDHXRXK (N-terminal acetyl; Nle at 1 (X); D-Nal 2 at 4 (X); Nal 2 at 6 (X); cyclo(Asp 2 to Lys 7); free C-terminal acid) [Ac-Nle-cyclo(Asp-His-D-Nal 2-Arg-Nal 2-Lys)-OH]"
measured_parameter = "pKi"
test_value = 9.52

